biological target: Trypsin (type 1× from porcine pancreas) (Sus scrofa); construct: Trypsin (5 ug/ml; type 1× from porcine pancreas); purchased Sigma, St. Louis Mo; host or cells: porcine pancreas; assay: Trypsin Assay; type: biochemical; conditions: read-out: IC50 Trypsin II, cell printed 'at 100 μM'; cell adds 'at 100 μM'
readout.type: IC50 (nM)
One number for each entry, in nM.

Q. Which IC50 is reported for this compound? N=C(N)c1ccc(CNC(=O)Cn2c(-c3cccc(N)c3)c(Cl)nc(NC(CC(=O)O)c3ccccc3)c2=O)cc1 (racemic)
A. 48

----------
target: Trypsin (type 1× from porcine pancreas) (Sus scrofa, UniProt P00761); construct: Trypsin (5 ug/ml; type 1× from porcine pancreas); purchased Sigma, St. Louis Mo; host or cells: porcine pancreas; test: Trypsin Assay; format: biochemical; conditions: inhibitor at 100 νM
Sequence (P00761 9-231): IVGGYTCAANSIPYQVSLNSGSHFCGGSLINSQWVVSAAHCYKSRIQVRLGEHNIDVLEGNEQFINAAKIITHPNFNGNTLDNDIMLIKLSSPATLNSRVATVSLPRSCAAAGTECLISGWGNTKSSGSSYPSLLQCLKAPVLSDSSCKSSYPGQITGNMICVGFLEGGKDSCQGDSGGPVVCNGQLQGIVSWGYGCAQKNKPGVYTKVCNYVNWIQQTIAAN
readout.type: % Inhibition Trpysin II (100 νM) (%)
One number for each entry, in %.

Look up % Inhibition Trpysin II (100 νM) for the entries below, preserving their order.
1. O=C(Cn1c(Cc2ccccc2)c(Cl)nc(NCCN2CCOCC2)c1=O)NCCc1ccncc1 [Example E-0063]
2. O=C(Cn1c(-c2ccc(Cl)cc2)c(Cl)nc(NCCc2ccc(Cl)cc2)c1=O)NCCc1ccncc1 [Example E-0028]

A.
0
3
